Parameter protein stability index: see the listing below.
B1: C10orf62 (parent)
chain: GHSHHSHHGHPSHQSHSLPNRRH

# Variants of: B1
# MEASUREMENT_PROTOCOL: protein stability index of a GFP-peptide fusion (GPS, HEK-293T) (PSI 1-6); higher = more stable;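 note: lentivirally expressed fusions sorted by FACS into six bins by GFP to DsRed ratio, PSI derived from sequencing read proportions per bin multiplied by bin number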
# MEASUREMENT_CONDITIONS: c terminus: native
ASSAY_ENDPOINT: protein stability index

>>> recorded_value("GWSHHSHHGHPSHQSHSLPNRRH [H2W]")
3
>>> recorded_value("GHSYHSHHGHPSHQSHSLPNRRH [H4Y]")
2.93
>>> recorded_value("GHSHHSHHGIPSHQSHSLPNRRH [H10I]")
2.96

Values were extracted from the supplement of paper PMC10567573.
